Catalogue of composite z-score values
method-summary: small-molecule microarray binders of probe aLefty2, primary screen, biochemical, biotinylated probe, 635/667 nm fluorescence (AID 1094);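 note: score merges spot fluorescence near 667 nm with spot signal-to-noise ratio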
experimental-conditions: higher = more signal
Form: value (number only, do not type unit).

Some solved cases for reference:
line-notation: CCN1C(=O)[C@H]2[C@H]3[C@H](O)[C@H](O)CC(=NO[C@@H]4O[C@H](COC(C)=O)[C@@H](OC(C)=O)[C@H](OC(C)=O)[C@H]4OC(C)=O)[C@@H]3CC[C@H]2C1=O
composite z-score: 0.015
--
line-notation: CSCC[C@@H]1NC(=O)CC=C[C@@H](C)COC(=O)[C@H](C)COC1=O
composite z-score: -0.295
--
line-notation: CCN1C(=O)[C@H]2[C@H]3[C@H](O)[C@H](O)CC(=NNC(=O)OCc4ccccc4)[C@H]3CC[C@H]2C1=O
composite z-score: 0.0166
--
line-notation: CC(C)(C)N1C(=O)[C@H]2[C@H]3[C@H](O)[C@H](O)CC(=NNC(=O)OCc4ccccc4)[C@@H]3CC[C@H]2C1=O
composite z-score: -0.0824
--
line-notation: C=CC[C@@H]1C=C[C@H](ON=C[C@@H](NS(=O)(=O)c2ccc(C)cc2)[C@H](C)C=CCC(=O)OC)[C@@H](CO)O1
composite z-score: -0.11
--
line-notation: CC(=O)OC[C@H]1O[C@@H](ON=C(C)C)[C@H](OC(C)=O)[C@@H](OC(C)=O)[C@@H]1OC(C)=O
composite z-score: 0.089

Let us examine a further case.
// recorded composite z-score for "COC(=O)CC=C[C@@H](C)[C@@H](C=NOC[C@@H](O)COCc1ccco1)NS(=O)(=O)c1ccc(C)cc1" : -0.202
